assay.protocol: Pharmacokinetics in rats (jugular vein cannula, plasma LC-MS)
Format: in vivo, Rat
condition.parameters: male, rat, plasma, oral, 50 mg/kg, male rat; male rats dosed orally at 50 mg/kg; read-out: MR T1/2 hr (converted)
Method: Rats (male or female, 200-225 g) were prepared with indwelling jugular vein cannula as described by Harms et al., Applied Physiol. 36:391-398 (1974), and allowed to recover overnight with free access to the standard vivarium chow and water. […] The samples were analyzed by LC-MS using 30-90% gradient of ACN in 50 mM ammonium acetate. The pharmacokinetic parameters were calculated using WinNonlin software (Scientific Consulting Inc.). […]
recorded.endpoint: half-life
Answer by giving the amount and then stating its unit.

half-life for COc1nc(NCCN2CCCC2)nc(OC)c1NC(=O)c1ccc(Cc2cc3c(cc2C)C(C)(C)OC3(C)C)o1 is 7 h
